Data credit: paper PMC12732972

Target: beta amyloid (Aβ42) (Homo sapiens, UniProt P05067)
Construct: synthetic peptide of 42 amino acids β-amyloid Aβ42 (monomers)
Sequence (P05067 672-713 limits assumed): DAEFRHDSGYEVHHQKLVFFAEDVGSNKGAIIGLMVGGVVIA
Assay: ITC with Aβ[…] monomers (supported by fluorescence saturation binding with monomers and fibrils)
readout: Kd (µM)

1. CC1=C(c2nc3ccccc3s2)C(C)=[N+]2C1=C(c1ccc(OCC(=O)NCCCOc3c(I)cc(Cl)c4cccnc34)cc1)c1c(C)cc(C)n1[B-]2(F)F ... 4.08
